All figures here come from PubChem BioAssay AID1963840.

test system: 695427-040-R-J1-PDC complex spheroid viability; assay: Anticancer human tumor 695427-040-R-J1-PDC patient-derived colon adenocarcinoma cell line growth inhibition [POLQ]; conditions: curve of first compound; second compound 0.0316 µM;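 also: spheroids exposed to compounds for seven days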
Please respond with reported IC50 for every item in the list.

{"compound": "C=CC(=O)N1CCN(c2nc(=O)n(-c3c(C)ccnc3C(C)C)c3nc(-c4c(O)cccc4F)c(F)cc23)C(C)C1 (stereo not drawn) + Cc1cccc(N(C)C(=O)C2C(O)CCN2c2nc(C)cc(C(F)(F)F)c2C#N)c1", "IC50": "> 10 µM"}
{"compound": "C#Cc1c(F)ccc2cc(O)cc(-c3ncc4c(N5CC6CCC(C5)N6)nc(OCC56CCCN5CC(F)C6)nc4c3F)c12 (stereo not drawn) + Cc1cccc(N(C)C(=O)C2C(O)CCN2c2nc(C)cc(C(F)(F)F)c2C#N)c1", "IC50": "> 10 µM"}
{"compound": "O=c1[nH]cc(F)c(=O)[nH]1 + Nc1ccc(C#CCN(C(=O)Cc2ncc(C(F)(F)F)cc2C(F)(F)F)c2ccc(F)cc2)nn1", "IC50": "> 10 µM"}
{"compound": "COc1cc(C2c3cc4c(cc3C(OC3OC5COC(C)OC5C(O)C3O)C3COC(=O)C23)OCO4)cc(OC)c1O (stereo not drawn) + Nc1ccc(C#CCN(C(=O)Cc2ncc(C(F)(F)F)cc2C(F)(F)F)c2ccc(F)cc2)nn1", "IC50": "> 10 µM"}
{"compound": "CC1COCCN1c1cc(-c2ccnn2C)c2ccnc(-c3ccn[nH]3)c2n1 (stereo not drawn) + COC1C(OC(N)=O)C(O)C(Oc2ccc3c(O)c(NC(=O)c4ccc(O)c(CC=C(C)C)c4)c(=O)oc3c2C)OC1(C)C", "IC50": "1.21 µM"}

# map each compound to its IC50
1. C=CC(=O)N1CCN(c2nc(=O)n(-c3c(C)ccnc3C(C)C)c3nc(-c4c(O)cccc4F)c(F)cc23)C(C)C1 (stereo not drawn) + COC1C(OC(N)=O)C(O)C(Oc2ccc3c(O)c(NC(=O)c4ccc(O)c(CC=C(C)C)c4)c(=O)oc3c2C)OC1(C)C
2. CC1COCCN1c1cc(-c2ccnn2C)c2ccnc(-c3ccn[nH]3)c2n1 (stereo not drawn) + Cc1cccc(N(C)C(=O)C2C(O)CCN2c2nc(C)cc(C(F)(F)F)c2C#N)c1
3. Cn1ncnc1[C@H]1c2n[nH]c(=O)c3cc(F)cc(c23)N[C@@H]1c1ccc(F)cc1 + COC1C(OC(N)=O)C(O)C(Oc2ccc3c(O)c(NC(=O)c4ccc(O)c(CC=C(C)C)c4)c(=O)oc3c2C)OC1(C)C

1. > 10 µM
2. 1.91 µM
3. > 0.1 µM
